Target: NS5 (Zika virus, UniProt A0A143MHK7)
Sequence (A0A143MHK7 whole entry, the tested form may be a part): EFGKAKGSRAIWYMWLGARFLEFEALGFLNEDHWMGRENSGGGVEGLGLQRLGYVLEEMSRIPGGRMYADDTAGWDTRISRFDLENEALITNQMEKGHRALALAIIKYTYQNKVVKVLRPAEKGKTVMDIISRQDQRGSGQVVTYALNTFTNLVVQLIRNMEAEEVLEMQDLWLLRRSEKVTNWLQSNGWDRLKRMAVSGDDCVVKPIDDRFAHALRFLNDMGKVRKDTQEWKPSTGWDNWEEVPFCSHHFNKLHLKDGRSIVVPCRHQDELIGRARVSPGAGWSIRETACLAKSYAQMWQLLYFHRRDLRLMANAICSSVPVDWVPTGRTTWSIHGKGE
Assay: Inhibition of Zika virus RNA-dependent RNA polymerase using poly(rC)/rG13 as substrate after 45 mins
measured_quantity: pIC50
Answers are plain numbers, as −log10 of the molar value.

Please give the measured pIC50 for this compound: [N-]=[N+]=NCc1cnc(C(=O)NO)c(O)c1CO
5.28

* * *

System: Zika virus
Test: Antiviral activity against Zika virus PLCal_ZV infected in Huh7 cells by Promega Viral ToxGlo Assay
Type: functional, organism-based
Details: Huh-7
measured_quantity: pEC50
Answers are plain numbers, as −log10 of the molar value.

Please give the measured pEC50 for this compound: [N-]=[N+]=NCc1cnc(C(=O)NO)c(O)c1CO
5.34

* * *

Target: UniProtKB A0A024AXB9
Assay: Inhibition of N-terminal His6-tagged Zika virus NS2B (49 to 95 residues) - NS3 (1 to 170 residues) protease domain expressed in Escherichia coli BL21-Gold (DE3) cells preincubated for 10 mins followed by Bz-Nle-Lys-Lys-Arg-AMC substrate addition
measured_quantity: pIC50
One number for each entry, as −log10 of the molar value.

Please give the measured pIC50 for this molecule: N=C(N)NCCC[C@H](NC(=O)[C@H](Cc1ccc(CN)cc1)NC(=O)c1ccccc1)B(O)O
6.60

* * *

Would you kindly list CC50 for each of these compounds?
Test: Cytotoxicity against African green monkey Vero E6 cells measured up to 24 to 72 hrs by MTT assay
Type: cell-based, Vero C1008
Conditions: chlorocebus sabaeus
Numbers only, in µM.

# mol_smiles, readout_unit, CC50
rows = [
    ("COc1ccc2cc3[n+](cc2c1OC)CCc1cc2c(cc1-3)OCO2", "µM", 221),
]

Switching to the query record.
Please give the measured CC50 for this compound: Cc1cc(O)c2c(c1)C(=O)c1cc(O)cc(O)c1C2=O
68.6

* * *

Assay: Selectivity ratio of CC50 for African green monkey Vero E6 cells to EC50 for Zika virus MR766 infected in African green monkey Vero E6 cells
Type: toxicity, Vero C1008
Conditions: read-out: Ratio CC50/EC50
measured_quantity: selectivity ratio

Please give the measured selectivity ratio for this compound: CCCCCOCc1c(Nc2ccc(S(N)(=O)=O)cc2)nc(N2CCOCC2)nc1C(=O)NCCOc1ccccc1
> 41

* * *

Assay: Cytotoxicity against human NSC after 5 days by CellTiter Blue assay
Type: cell-based
Conditions: NSC cells
measured_quantity: CC50 at 120 h

Please give the measured CC50 at 120 h for this compound: CCN(CC)CCCC(C)Nc1ccnc2cc(Cl)ccc12 (stereo unspecified) [CHLOROQUINE]
95 to 135 µM

* * *

Assay: Cytotoxicity against BHK21 cells after 24 to 48 hrs by CCK8 assay
Assay type: cell-based, Mesocricetus auratus
Settings: hamster, BHK-21 cells
Would you kindly list CC50 for each of these compounds?
Give bare numbers, in µM.

Recorded results for 2 compounds are shown here.
# compound, readout_unit, CC50
records = [
    ("CC(C)(C)NCc1ccc(Nc2ccnc3cc(Cl)ccc23)cc1O", "µM", 98),
    ("CCN(CC)CCCC(C)Nc1c2ccc(Cl)cc2nc2ccc(OC)cc12 (stereo not drawn)", "µM", 18.6),
]

Switching to the query record.
Please give the measured CC50 for this compound: O[C@@H](c1cc(C(F)(F)F)nc2c(C(F)(F)F)cccc12)[C@H]1CCCCN1 [(S,R)-MEFLOQUINE]
20.4

* * *

Test: Cytotoxicity against HBMEC after 5 days by CellTiter Blue assay
Settings: human
measured_quantity: CC50 at 120 h

Please give the measured CC50 at 120 h for this compound: CCN(CC)CCCC(C)Nc1ccnc2cc(Cl)ccc12 (stereo unspecified) [CHLOROQUINE]
95 to 135 µM

* * *

Assay: Cytotoxicity against human HuH7 cells by MTT assay
Type: cell-based
Settings: Huh-7 cells
measured_quantity: CC50 (µg/mL)
Numbers only, in µg/mL.

Please give the measured CC50 for this compound: CO[C@@H]1[C@@H](OC(N)=O)[C@@H](O)[C@H](Oc2ccc3c(O)c(NC(=O)c4ccc(O)c(CC=C(C)C)c4)c(=O)oc3c2C)OC1(C)C
1100

* * *

Experiment: Cytotoxicity against golden hamster BHK21 cells by Promega Viral ToxGlo Assay
Type: cell-based, Mesocricetus auratus
Settings: BHK-21 cells
measured_quantity: CC50 (µM)
Give bare numbers, in µM.

Please give the measured CC50 for this compound: [N-]=[N+]=NCc1cnc(C(=O)NO)c(O)c1CO
22

* * *

Experiment: Cytotoxicity against human RD cells
Assay type: cell-based
measured_quantity: CC50

Please give the measured CC50 for this molecule: Nc1ncnc2c([C@@H]3N[C@H](CO)[C@@H](O)[C@H]3O)c[nH]c12
> 89 µM

* * *

Assay: Cytotoxicity against human A549 cells
Format: cell-based
Non-standard residues stand in square brackets, D forms with d. Residues, ends and D or L forms follow the SMILES beside them. *: point of attachment. Pro(4R-Me) = C[C@H]1CN[C@H](C(=O)O)C1; Oleoyl = CCCCCCCC/C=C\CCCCCCCC(=O)*; hSer = N[C@@H](CCO)C(=O)O
measured_quantity: CC50 (nM)
Give bare numbers, in nM.

Please give the measured CC50 for this compound: CCCCCCCC/C=C\CCCCCCCC(=O)N[C@H](C(=O)N1C[C@H](C)C[C@H]1C(=O)N[C@H](C(=O)N[C@@H](CCO)C(=O)N[C@@H](C)C=O)C(C)C)[C@@H](C)O (Oleoyl-T[Pro(4R-Me)]V[hSer]A-aldehyde)
1650

* * *

Biological target: UniProt A0A024AXB9
Experiment: Inhibition of wild type Zika virus NS2B-NS3 protease preincubated for 30 mins followed by Pyr-RTKR-AMC substrate addition
measured_quantity: IC50 (nM)
Numbers only, in nM.

Look up IC50 with UniProt A0A024AXB9 for this molecule: Clc1nc2n[nH]nc2nc1Cl
820

* * *

Experiment: Cytotoxicity against human Neural progenitor cells after 24 hrs by ATP-Lite assay
Assay type: cell-based
measured_quantity: CC50 at 24 h

Please give the measured CC50 at 24 h for this compound: Clc1nc2n[nH]nc2nc1Cl
> 50 µM

* * *

Assay: Cytotoxicity against African green monkey Vero cells by visual method
Assay type: cell-based
Conditions: chlorocebus sabaeus
measured_quantity: CC50

Please give the measured CC50 for this compound: Nc1ncnc2c1ccn2[C@@H]1O[C@H](CO)[C@@H](O)[C@H]1O [TUBERCIDIN]
> 357 µM

* * *

Would you kindly list IC50 for each of these molecules?
Target: Nonstructural protein 3 (Zika virus)
Sequence (A0A024AXB9 whole entry, the tested form may be a part): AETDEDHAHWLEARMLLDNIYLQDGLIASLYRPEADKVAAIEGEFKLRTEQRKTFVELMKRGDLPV
Test: Inhibition of Zika virus NS2B (1421 to 1469 residues) - NS3 (1503 to 1688 residues) expressed in Escherichia coli BL21(DE3) cells using Dabcyl-KTSAVLQSGFRKME-Edans as substrate after 11 mins by FRET assay

Batch request: IC50 for each of the following molecules.
1. C[C@@H]1O[C@@H](OC[C@H]2O[C@@H](Oc3c(-c4ccc(O)c(O)c4)oc4cc(O)cc(O)c4c3=O)[C@H](O)[C@@H](O)[C@@H]2O)[C@H](O)[C@H](O)[C@H]1O [RUTIN]
2. O=C(O[C@@H]1Cc2c(O)cc(O)cc2O[C@@H]1c1ccc(O)c(O)c1)c1cc(O)c(O)c(O)c1 [EPICATECHIN GALLATE]
3. O=c1cc(-c2ccc(O)c(O)c2)oc2cc(O)cc(O)c12 [LUTEOLIN]
4. O=C(O[C@@H]1Cc2c(O)cc(O)cc2O[C@@H]1c1cc(O)c(O)c(O)c1)c1cc(O)c(O)c(O)c1 [EPIGALOCATECHIN GALLATE]
5. O=c1c(O[C@@H]2O[C@H](CO)[C@@H](O)[C@H](O)[C@H]2O)c(-c2ccc(O)cc2)oc2cc(O)cc(O)c12 [ASTRAGALIN]
6. O=C(O[C@@H]1Cc2c(O)cc(O)cc2O[C@H]1c1cc(O)c(O)c(O)c1)c1cc(O)c(O)c(O)c1 [GALLOCATECHIN GALLATE]
7. O=c1c(O)c(-c2cc(O)c(O)c(O)c2)oc2cc(O)cc(O)c12 [MYRICETIN]

104 µM
89 µM
53 µM
87 µM
112 µM
99 µM
22 µM

* * *

Molecular target: NS5 (Zika virus)
Test: Inhibition of Zika virus MTase (4 to 278 residues) expressed in Escherichia coli T7 using GpppAC4 as substrate in presence of [3H]SAM incubated for 30 mins by liquid scintillation counter method
Would you kindly list IC50 for each of these compounds?
Give bare numbers, in µM.

# compound, study_target, IC50 [µM]
data = [
    ("Nc1cc(C(F)(F)F)ccc1NC(=O)Nc1cccc(S(=O)(=O)Nc2ccc(C(=O)O)cc2)c1", "NS5 (Zika virus)", 24),
]

Please give the measured IC50 for this compound: Nc1ncnc2c1ncn2[C@@H]1O[C@H](C[C@@H](N)CC[C@H](N)C(=O)O)[C@@H](O)[C@H]1O [SINEFUNGIN]
1.18

Recorded values, source ChEMBL document CHEMBL4354808.
